In this section, each of the compounds is paired with its reported solubility.
experiment: physchem; settings: aqueous medium, thermodynamic from solid, Solubility (mg/mL) Salt derivative, room temperature, expressed as salt derivative
experimental.readout: solubility (µg/mL)

>>> experimental_value("CCCCCc1cc(O)c(C/C=C(\\C)CCC=C(C)C)c(OC(=O)NCC(=O)[O-])c1.[Na+] [Example 10]")
13300
>>> experimental_value("C=C(C)[C@@H]1CCC(C)=C[C@H]1c1c(O)cc(CCCCC)cc1OC(=O)NCC(=O)[O-].[Na+] [Example 3]")
4370
